The reported measurements were obtained from ChEMBL document CHEMBL6109036.

Tested on: Helicobacter pylori
PROTOCOL DETAILS: Bactericidal against Helicobacter pylori measured after 72 hrs of incubation under microaerophilic conditions by modified broth dilution method
Type: functional

| COMPOUND | TGT | MBC90 |
| --- | --- | --- |
| COc1cc(C=O)cc(/N=N/c2cccc([N+](=O)[O-])c2)c1O | Helicobacter pylori | 16 µg/mL |
| COc1cc(C=O)cc(/N=N/c2ccc(Cl)c(Cl)c2)c1O | Helicobacter pylori | 128 µg/mL |
| C=CCc1ccc(O)c(OC)c1 [EUGENOL] | Helicobacter pylori | 64 µg/mL |
| Cc1ccccc1/N=N/c1cc(C(C)C)c(O)cc1C | Helicobacter pylori | 8 µg/mL |
| COc1ccc(/N=N/c2cc(C(C)C)c(O)cc2C)cc1 | Helicobacter pylori | 4 µg/mL |
| Cc1ccccc1/N=N/c1cc(C(C)C)c(O)c(/N=N/c2ccccc2C)c1C | Helicobacter pylori | >128 µg/mL |
| C=CCc1cc(/N=N/c2ccccc2C)c(O)c(OC)c1 | Helicobacter pylori | 128 µg/mL |
| COc1ccc(/N=N/c2cc(C(C)C)c(OC(=O)N(C)C)cc2C)cc1 | Helicobacter pylori | 128 µg/mL |

---

Tested on: Helicobacter pylori
PROTOCOL DETAILS: Anti-bacterial activity against Helicobacter pylori Clinical isolate 23 measured after 72 hrs incubation by modified broth dilution method
Assay type: functional

| COMPOUND | MIC |
| --- | --- |
| C=CCc1ccc(O)c(OC)c1 [EUGENOL] | 64 µg/mL |
| C=CCc1cc(/N=N/c2ccc(Cl)cc2Cl)c(O)c(OC)c1 | > 128 µg/mL |
| Cc1ccccc1/N=N/c1cc(C(C)C)c(O)c(/N=N/c2ccccc2C)c1C | 128 µg/mL |
| COc1ccc(/N=N/c2cc(C(C)C)c(OC(=S)N(C)C)cc2C)cc1 | 128 µg/mL |

---

# Lookup of reported MIC keyed by entry
Test system: Helicobacter pylori
PROTOCOL DETAILS: Anti-bacterial activity against Helicobacter pylori Clinical isolate 23 measured after 72 hrs incubation by modified broth dilution method
Format: functional

| COMPOUND | REPORTED RELATION | MIC (µg/mL) |
| --- | --- | --- |
| C=CCc1cc(/N=N/c2cccc(OC)c2)c(O)c(OC)c1 | > | 128 |
| COc1ccc(/N=N/c2cc(C=O)cc(OC)c2O)cc1 | > | 128 |
| COc1cc(C=O)cc(/N=N/c2cccc([N+](=O)[O-])c2)c1O | = | 8 |
| CC1(C)S[C@@H]2[C@H](NC(=O)[C@H](N)c3ccc(O)cc3)C(=O)N2[C@H]1C(=O)O [AMOXICILLIN] | = | 0.016 |
| COc1cc(C=O)cc(/N=N/c2cccc(Cl)c2)c1O | = | 128 |
| COc1cc(C=O)ccc1O [VANILLIN] | > | 128 |
| Cc1ncc([N+](=O)[O-])n1CCO [METRONIDAZOLE] | = | 1 |
| COc1ccc(/N=N/c2cc(C(C)C)c(O)c(/N=N/c3ccc(OC)cc3)c2C)cc1 | = | 128 |
| C=CCc1cc(/N=N/c2ccccc2C)c(O)c(OC)c1 | = | 64 |
| COc1cc(C=O)cc(/N=N/c2ccc(Cl)c(Cl)c2)c1O | = | 64 |
| Cc1cc(/N=N/c2ccccc2Cl)c(C(C)C)c(/N=N/c2ccccc2Cl)c1O | = | 128 |

---

Tested on: Helicobacter pylori
PROTOCOL DETAILS: Anti-bacterial activity against Helicobacter pylori Clinical isolate F4 measured after 72 hrs incubation by modified broth dilution method
Assay type: functional
# Lookup of reported MIC keyed by entry
TEST READOUT: MIC (µg/mL)

| TEST SMILES | UNIT DESCRIPTOR | REPORTED RELATION | RESULT |
| --- | --- | --- | --- |
| Cc1cc(O)c(C(C)C)cc1/N=N/c1ccccc1Cl | µg/mL | = | 4 |
| COc1cc(C=O)cc(/N=N/c2ccc(Br)cc2)c1O | µg/mL | = | 16 |
| C=CCc1cc(/N=N/c2ccc([N+](=O)[O-])cc2)c(O)c(OC)c1 | µg/mL | = | 64 |
| COc1cc(C)c(/N=N/c2ccc([N+](=O)[O-])cc2)cc1C(C)C | µg/mL | > | 128 |
| COc1cccc(C=O)c1O | µg/mL | = | 8 |
| Cc1ccccc1/N=N/c1cc(C(C)C)c(O)c(/N=N/c2ccccc2C)c1C | µg/mL | = | 128 |
| COc1ccc(/N=N/c2cc(C)c(O)c(/N=N/c3ccc(OC)cc3)c2C(C)C)cc1 | µg/mL | > | 128 |
| COc1cc(C=O)ccc1O | µg/mL | = | 128 |
| Cc1ccccc1/N=N/c1cc(C(C)C)c(O)cc1C | µg/mL | = | 4 |
| COc1cc(C=O)cc(/N=N/c2ccc(Cl)c(Cl)c2)c1O | µg/mL | = | 128 |
| Cc1cc(/N=N/c2ccccc2Cl)c(C(C)C)c(/N=N/c2ccccc2Cl)c1O | µg/mL | = | 128 |

---

System: Helicobacter pylori
PROTOCOL DETAILS: Anti-bacterial activity against Helicobacter pylori measured after 72 hrs incubation by modified broth dilution method
Type: functional

| TEST SMILES | UNIT DESCRIPTOR | REPORTED RELATION | MIC50 |
| --- | --- | --- | --- |
| Cc1cc(OC(=S)N(C)C)c(C(C)C)cc1/N=N/c1ccc([N+](=O)[O-])cc1 | µg/mL | > | 128 |
| Cc1c(/N=N/c2ccccc2Cl)cc(C(C)C)c(O)c1/N=N/c1ccccc1Cl | µg/mL | = | 128 |
| COc1cc(C=O)cc(/N=N/c2ccccc2Cl)c1O | µg/mL | = | 64 |
| C/C=C/c1ccc(O)c(OC)c1 | µg/mL | = | 32 |
| COc1ccc(/N=N/c2cc(C(C)C)c(OC(C)=O)cc2C)cc1 | µg/mL | = | 64 |
| C=CCc1cc(/N=N/c2cccc(OC)c2)c(O)c(OC)c1 | µg/mL | > | 128 |
| COc1cc(C=O)ccc1O | µg/mL | > | 128 |
| COc1cc(C=O)cc(/N=N/c2ccc(C)cc2)c1O | µg/mL | = | 4 |
| COc1ccc(/N=N/c2cc(C(C)C)c(OC(=S)N(C)C)cc2C)cc1 | µg/mL | = | 128 |
| Cc1cc(/N=N/c2ccc(Br)cc2)c(C(C)C)c(/N=N/c2ccc(Br)cc2)c1O | µg/mL | > | 128 |
| COc1ccc(/N=N/c2cc(C=O)cc(OC)c2O)cc1 | µg/mL | > | 128 |
| Cc1ccccc1/N=N/c1cc(C(C)C)c(O)cc1C | µg/mL | = | 4 |
| Cc1cc(/N=N/c2ccccc2Cl)c(C(C)C)c(/N=N/c2ccccc2Cl)c1O | µg/mL | = | 128 |
| COc1ccc(/N=N/c2cc(C)c(O)cc2C(C)C)cc1 | µg/mL | = | 4 |
| C=CCc1cc(/N=N/c2ccc(Cl)cc2Cl)c(O)c(OC)c1 | µg/mL | > | 128 |
| COc1ccc(/N=N/c2cc(C(C)C)c(OC(=O)N(C)C)cc2C)cc1 | µg/mL | > | 128 |
| COc1cc(C)c(/N=N/c2ccc([N+](=O)[O-])cc2)cc1C(C)C | µg/mL | > | 128 |
| COc1ccc(/N=N/c2cc(C(C)C)c(O)c(/N=N/c3ccc(OC)cc3)c2C)cc1 | µg/mL | = | 128 |
| Cc1ccc(C(C)C)c(/N=N/c2ccc([N+](=O)[O-])cc2)c1O | µg/mL | = | 2 |
| C=CCc1ccc(O)c(OC)c1 | µg/mL | = | 64 |
| Cc1cc(/N=N/c2ccccc2Cl)c(C(C)C)cc1O | µg/mL | = | 4 |
| Cc1ccccc1/N=N/c1cc(C(C)C)c(O)c(/N=N/c2ccccc2C)c1C | µg/mL | = | 128 |
| Cc1cc(O)c(C(C)C)cc1C1(c2cc(C(C)C)c(O)cc2C)OS(=O)(=O)c2ccccc21 | µg/mL | > | 128 |

---

PROTOCOL DETAILS: Cytotoxicity against human HIEC-6 cells assessed as cell viability measured after 72 hrs by MTT assay
# Lookup of reported IC50 at 72 h keyed by entry

| TEST SMILES | IC50 at 72 h / µg/mL |
| --- | --- |
| Cc1ccc(C(C)C)c(/N=N/c2ccc([N+](=O)[O-])cc2)c1O | 13.3 |
| Cc1cc(O)c(C(C)C)cc1/N=N/c1ccc([N+](=O)[O-])cc1 | 7.61 |
